The reported measurements were obtained from ChEMBL document CHEMBL1126619.

Target: Thymidylate synthase (Escherichia coli, UniProt C3SWJ7)
Sequence (C3SWJ7 whole entry): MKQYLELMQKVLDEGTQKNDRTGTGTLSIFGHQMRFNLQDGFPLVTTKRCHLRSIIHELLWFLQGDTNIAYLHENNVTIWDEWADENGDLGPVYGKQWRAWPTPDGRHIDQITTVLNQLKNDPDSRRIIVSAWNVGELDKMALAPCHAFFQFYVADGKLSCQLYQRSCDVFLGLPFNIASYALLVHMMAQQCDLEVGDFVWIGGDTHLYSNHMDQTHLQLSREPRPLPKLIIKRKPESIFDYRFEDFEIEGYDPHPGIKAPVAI
Experiment: Inhibition of purified Escherichia coli Thymidylate synthase
Kindly apply the following: true if Ki is less than 4000 nM, false in every other case.

Compound structure: Cc1cc(Sc2c(C)ccc3nc(C)nc(O)c23)ccn1
Subject of test: Thymidylate synthase (Escherichia coli, UniProt C3SWJ7)
Cat: true

Compound structure: Cc1nc(O)c2c(Sc3ccc([N+](=O)[O-])cc3)c(C)ccc2n1
Subject of test: Thymidylate synthase (Escherichia coli, UniProt C3SWJ7)
Cat: true

Compound structure: Cc1nc(O)c2c(Sc3ccncc3)c(O)ccc2n1
Subject of test: Thymidylate synthase (Escherichia coli, UniProt C3SWJ7)
Cat: false

Compound structure: Cc1nc(O)c2c(Sc3ccnc(C(F)(F)F)c3)c(C)ccc2n1
Subject of test: Thymidylate synthase (Escherichia coli, UniProt C3SWJ7)
Cat: true

Compound structure: Cc1nc(O)c2c(Sc3ccnnc3)c(C)ccc2n1
Subject of test: Thymidylate synthase (Escherichia coli, UniProt C3SWJ7)
Cat: true

Does the reported Ki of `Cc1nc(O)c2c(Sc3ccncc3)cccc2n1` stay below 4000 nM?
false

Consider the molecule `Cc1nc(O)c2c(Sc3cccnc3)c(C)ccc2n1` . Is its Ki strictly less than 4000 nM?
false

I'd appreciate it if you could check whether `Cc1nc(O)c2c(Sc3ccccn3)cccc2n1` has Ki smaller than 4000 nM.
false

In plain terms, does `Cc1nc(O)c2c(Sc3ccncc3)c(C)ccc2n1` come in under 4000 nM for Ki?
true

Is 4000 nM strictly greater than the molecule's reported Ki? molecule: `Cc1ccc2nc(N)[nH]c(=O)c2c1Sc1ccncc1`
true

Please state whether Ki is below 4000 nM for `COc1cc(Sc2c(C)ccc3nc(C)nc(O)c23)ccn1`
true

###

Molecular target: Thymidylate synthase (Homo sapiens)
Sequence (P04818 whole entry): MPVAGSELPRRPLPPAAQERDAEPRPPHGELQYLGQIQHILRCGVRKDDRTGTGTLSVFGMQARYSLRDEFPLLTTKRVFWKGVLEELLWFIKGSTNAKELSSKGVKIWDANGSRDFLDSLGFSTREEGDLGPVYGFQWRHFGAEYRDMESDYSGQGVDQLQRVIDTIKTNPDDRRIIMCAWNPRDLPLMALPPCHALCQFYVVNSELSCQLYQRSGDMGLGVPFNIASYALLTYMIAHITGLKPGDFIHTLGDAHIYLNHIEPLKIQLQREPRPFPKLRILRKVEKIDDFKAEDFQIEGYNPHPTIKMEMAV
Experiment: Inhibition of human Thymidylate synthase
The reader will find reported Ki values listed item by item below.
Just the number in nM, nothing appended.

Sample answers from the record:
Compound structure: Cc1nc(O)c2c(Sc3cccnc3)c(C)ccc2n1
Subject of test: Thymidylate synthase (Homo sapiens)
Measure: Ki
Assay result: 310
//
Compound structure: Cc1ccc2nc(N)nc(O)c2c1Sc1ccnc(C(F)(F)F)c1
Subject of test: Thymidylate synthase (Homo sapiens)
Measure: Ki
Assay result: 28
//
Compound structure: Cc1ccc2nc(N)nc(O)c2c1Sc1ccnnc1
Subject of test: Thymidylate synthase (Homo sapiens)
Measure: Ki
Assay result: 13
//
Compound structure: Cc1nc(O)c2c(Sc3ccncc3)cccc2n1
Subject of test: Thymidylate synthase (Homo sapiens)
Measure: Ki
Assay result: 960
//
Compound structure: Cc1nc(O)c2c(Sc3ccccn3)cccc2n1
Subject of test: Thymidylate synthase (Homo sapiens)
Measure: Ki
Assay result: 120000

For reference, reported Ki for `Nc1nc(O)c2c(Sc3ccncc3)c(Cl)ccc2n1` stands at 20

Input `COc1cc(Sc2c(C)ccc3nc(C)nc(O)c23)ccn1` . Output Ki: 37

The recorded Ki for entry `Cc1nc(O)c2c(Sc3ccnnc3)c(C)ccc2n1` equals 87

Measured Ki, `Cc1ccc2nc(N)nc(O)c2c1Sc1ccnc(N(C)C)c1` : 32

Data point: `Cc1nc(O)c2c(Sc3ccc(C(=O)O)cc3)c(C)ccc2n1` ; Ki = 141

Ki for `Cc1nc(O)c2c(Sc3ccnc(C(F)(F)F)c3)c(C)ccc2n1` is 70

Entry `Cc1nc(O)c2c(Sc3ccncc3)c(C)ccc2n1` ; Ki = 93

Form: compound = `Cc1nc(O)c2c(Sc3ccc([N+](=O)[O-])cc3)c(C)ccc2n1` ; Ki = 56

Per the record, `Cc1cc(Sc2c(C)ccc3nc(C)nc(O)c23)ccn1` has Ki of 39

The recorded Ki for entry `CCc1ccc2nc(C)nc(O)c2c1Sc1ccncc1` equals 200

// Ki value for `Cc1nc(O)c2c(Sc3ccnc(N(C)C)c3)c(C)ccc2n1` : 80

Item: `Cc1nc(O)c2c(Sc3ccncc3)c(O)ccc2n1` | Ki: 8800

###

Property: logP; scope: individual molecules
Assay: Partition coefficient (logP)
Assay type: physicochemical
Settings: octanol/water
Number, no unit, nothing else.

Compound structure: Cc1nc(O)c2c(Sc3ccc([N+](=O)[O-])cc3)c(C)ccc2n1
Measure: logP
Assay result: 3.29

Compound structure: Cc1nc(O)c2c(Sc3ccncc3)c(C)ccc2n1
Measure: logP
Assay result: 2.16

# context switch: different molecule, same logP
Sure, the documented logP for `Cc1nc2ccc(C)c(Sc3ccc(S(=O)(=O)c4ccccc4)cc3)c2c(=O)[nH]1` is 4.67

###

Entries and their pKi values follow.
Molecular target: Thymidylate synthase (Homo sapiens)
Test: Inhibition of human Thymidylate synthase
Scale for pKi: -log10 of concentration given in mol/L; no unit attached.

Illustrative cases are given below, each with its answer.
Compound structure: Cc1nc(O)c2c(Sc3ccc(C(=O)O)cc3)c(C)ccc2n1
pKi: 7.19
//
Compound structure: Cc1nc(O)c2c(Sc3ccnc(N(C)C)c3)c(C)ccc2n1
pKi: 7.24
//
Compound structure: Cc1cc(Sc2c(C)ccc3nc(C)nc(O)c23)ccn1
pKi: 7.18
//
Compound structure: COc1cc(Sc2c(C)ccc3nc(C)nc(O)c23)ccn1
pKi: 7.34
//
Compound structure: Nc1nc(O)c2c(Sc3ccncc3)c(Cl)ccc2n1
pKi: 7.74

Switching to the query record.
compound `Cc1ccc2nc(N)nc(O)c2c1Sc1ccnc(C(F)(F)F)c1` , pKi observed: 7.62

###

Below, each entry is listed with its recorded pKi.
Biological target: Thymidylate synthase (Homo sapiens)
Assay: Compound was tested for TS activity against human Thymidylate synthase by tight binding kinetics
Formally, pKi is defined as -log10 of the concentration c, with c in mol/L.

Compound structure: Cc1ccc2nc(N)nc(O)c2c1Sc1ccc(C(=O)N[C@H](CCC(=O)O)C(=O)O)cc1
Assay result: 9.91

Reported pKi (Thymidylate synthase (Homo sapiens)) for entry `Cc1nc(O)c2c(Sc3ccc(C(=O)N[C@H](CCC(=O)O)C(=O)O)cc3)c(C)ccc2n1` is 8.88

###

Listed below: Thymidine shift values for each entry.
Tested on: L1210
Test: The ratio of IC50 of the inhibitor (assayed in L1210 cells) in presence and absence of thymidine
Type: functional, Mus musculus

Please review the entries below; each comes with its answer.
Compound structure: Cc1ccc2nc(N)nc(O)c2c1Sc1ccnc(C(F)(F)F)c1
Thymidine shift: >5
//
Compound structure: CCc1ccc2nc(C)nc(O)c2c1Sc1ccncc1
Thymidine shift: ~10
//
Compound structure: Cc1nc(O)c2c(Sc3ccc([N+](=O)[O-])cc3)c(C)ccc2n1
Thymidine shift: 3.3
//
Compound structure: Cc1nc(O)c2c(Sc3ccncc3)c(C)ccc2n1
Thymidine shift: >14
//
Compound structure: Nc1nc(O)c2c(Sc3ccncc3)c(Cl)ccc2n1
Thymidine shift: ~14
//
Compound structure: Cc1nc(O)c2c(Sc3ccnc(N(C)C)c3)c(C)ccc2n1
Thymidine shift: 4.25
//
Compound structure: Cc1nc(O)c2c(Sc3ccc(C(=O)N[C@H](CCC(=O)O)C(=O)O)cc3)c(C)ccc2n1
Thymidine shift: >22
//
Compound structure: Cc1nc(O)c2c(Sc3ccccn3)cccc2n1
Thymidine shift: 1

The value of Thymidine shift measured for the compound `Cc1nc(O)c2c(Sc3ccc(C(=O)O)cc3)c(C)ccc2n1` turned out to be >5

What the record says about `Cc1ccc2nc(N)nc(O)c2c1Sc1ccnc(N(C)C)c1` : Thymidine shift is >20

###

In this section we review reported pKi values for a set of compounds.
Biological target: Thymidylate synthase (Escherichia coli)
Experiment: Inhibition of purified Escherichia coli Thymidylate synthase
Expect pKi as a plain number equal to -log10 of the molar concentration.

Compound structure: Cc1nc(O)c2c(Sc3ccncc3)c(C)ccc2n1
pKi: 6.30
//
Compound structure: COc1ccc2nc(C)nc(O)c2c1Sc1ccncc1
pKi: 5.82

Recorded pKi for `COc1cc(Sc2c(C)ccc3nc(C)nc(O)c23)ccn1` on Thymidylate synthase (Escherichia coli) was 6.55

# pKi measured on Thymidylate synthase (Escherichia coli) for item `Cc1ccc2nc(N)[nH]c(=O)c2c1Sc1ccncc1` = 7.31

Considering `Cc1cc(Sc2c(C)ccc3nc(C)nc(O)c23)ccn1` , its pKi with Thymidylate synthase (Escherichia coli) was recorded as 6.62

Measured on Thymidylate synthase (Escherichia coli), `Cc1nc(O)c2c(Sc3ccc([N+](=O)[O-])cc3)c(C)ccc2n1` has a documented pKi of 6.31

Considering `Cc1nc(O)c2c(Sc3ccncc3)cccc2n1` , its pKi with Thymidylate synthase (Escherichia coli) was recorded as 5.00

###

Molecular target: Thymidylate synthase (Homo sapiens)
Assay: Inhibition of human Thymidylate synthase
pKi: −log10 of the molar value.
Quick rule for you: pKi at 6 or higher means True, lower means False.

Compound structure: CCc1ccc2nc(C)nc(O)c2c1Sc1ccncc1
Cat: True

Shifting focus to the compound that follows.
Entry `Cc1nc(O)c2c(Sc3ccc([N+](=O)[O-])cc3)c(C)ccc2n1` : is its pKi no less than 6?
True
